Target: Somatostatin Receptor 2 (SSTR2) (Homo sapiens)
Sequence (P30874 whole entry, species assumed): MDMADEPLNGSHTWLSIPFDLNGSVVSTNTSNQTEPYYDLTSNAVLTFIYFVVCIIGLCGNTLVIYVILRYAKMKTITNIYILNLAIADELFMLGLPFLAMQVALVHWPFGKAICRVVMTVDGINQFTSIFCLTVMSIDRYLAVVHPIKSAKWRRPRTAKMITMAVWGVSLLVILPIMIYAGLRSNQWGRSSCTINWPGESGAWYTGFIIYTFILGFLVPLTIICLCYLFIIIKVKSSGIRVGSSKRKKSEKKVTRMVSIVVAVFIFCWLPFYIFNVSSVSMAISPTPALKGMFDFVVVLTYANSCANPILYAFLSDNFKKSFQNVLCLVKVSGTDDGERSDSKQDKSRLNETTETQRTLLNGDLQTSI
Experiment: Biochemical Assay for Activation of Somatostatin Receptor 2 (SSTR2), Cisbio HTRF cAMP assay
Conditions: average pEC50; HTRF cAMP assay in stably-transfected cell line expressing SSTR2; cells incubated with compounds for 1-2h
Experimental: Biochemical Assay for Activation of Somatostatin Receptor 2 (SSTR2) Agonistic activation of SSTRs leads to an […] production of intracellular cAMP levels. Cisbio's homogeneous time-resolved fluorescence (HTRF) cAMP assay was used to measure cAMP concentration in an high-throughput format. Increase in intracellular cAMP concentrations was measuring using a stably-transfected cell line expressing SSTR2. […] The average pEC50 was determined for the test compounds.
Grouping key: EC50. Bins: low = under 10 nM, middle = from 10 nM up to 300 nM, high = 300 nM and over

- Molecule: "COc1cc(F)cc(-c2cnc3[nH]c(-c4cccc(C#N)c4O)nc3c2N2CCC(N)CC2)c1 [Compound 59]"
  Subject Of Test: "Somatostatin Receptor 2 (SSTR2) (Homo sapiens)"
  Label Value: "high"
- Molecule: "Cc1cc(F)cc(-c2cnc3[nH]c(-c4cc(F)cc(C(N)=O)c4)nc3c2N2CCC(N)CC2)c1 [Compound 61]"
  Subject Of Test: "Somatostatin Receptor 2 (SSTR2) (Homo sapiens)"
  Label Value: "middle"
- Molecule: "NCc1cc(-c2cc(F)cc(F)c2)cc2c(N3CCC(N)CC3)c(-c3cc(F)cc(F)c3)cnc12 [Compound 159]"
  Subject Of Test: "Somatostatin Receptor 2 (SSTR2) (Homo sapiens)"
  Label Value: "low"
- Molecule: "Cn1c(-c2cccc(Br)c2O)nc2c(N3CCC(N)CC3)c(-c3cc(F)cc(F)c3)cnc21 [Compound 41]"
  Subject Of Test: "Somatostatin Receptor 2 (SSTR2) (Homo sapiens)"
  Label Value: "middle"
- Molecule: "N#Cc1cccc(-c2ccc3ncc(-c4cc(F)cc(F)c4)c(OC4CCCC(N)C4)c3c2)c1O (centres unmarked) [Compound 22]"
  Subject Of Test: "Somatostatin Receptor 2 (SSTR2) (Homo sapiens)"
  Label Value: "high"
- Molecule: "N#Cc1cccc(-c2ccc3ncc(-c4cc(F)cc(F)c4)c(-n4ccc(CN)c4)c3c2)c1O [Compound 144]"
  Subject Of Test: "Somatostatin Receptor 2 (SSTR2) (Homo sapiens)"
  Label Value: "high"
- Molecule: "CC(C)(C)OC(=O)NC1CCN(c2c(-c3cc(F)cc(F)c3)cnc3c(C(=O)O)cc(-c4cc(F)cc(F)c4)cc23)CC1 [Compound 148]"
  Subject Of Test: "Somatostatin Receptor 2 (SSTR2) (Homo sapiens)"
  Label Value: "high"
- Molecule: "NC(=O)c1cccc2c1OCCCNC1CCN(CC1)c1c(-c3cc(F)cc(F)c3)cnc3ccc-2cc13 [Compound 67]"
  Subject Of Test: "Somatostatin Receptor 2 (SSTR2) (Homo sapiens)"
  Label Value: "low"
- Molecule: "N#Cc1cccc(-c2ccc3ncc(-c4cc(F)cc(F)c4)c(C4=CCC(N)CC4)c3c2)c1O (centres unmarked) [Compound 125]"
  Subject Of Test: "Somatostatin Receptor 2 (SSTR2) (Homo sapiens)"
  Label Value: "low"
- Molecule: "N#Cc1cccc(-c2cc3ncc(-c4cc(F)cc(F)c4)c(N4CCC(N)CC4)c3o2)c1O [Compound 127]"
  Subject Of Test: "Somatostatin Receptor 2 (SSTR2) (Homo sapiens)"
  Label Value: "middle"
- Molecule: "N#Cc1cccc2c1OCCOCCNC1CCN(CC1)c1c(-c3cc(F)cc(F)c3)cnc3ccc-2cc13 [Compound 70]"
  Subject Of Test: "Somatostatin Receptor 2 (SSTR2) (Homo sapiens)"
  Label Value: "low"
- Molecule: "NC1CCN(c2c(-c3cc(F)cc(F)c3)cnc3c2C(=O)N(c2ccc(F)c(F)c2)CC3)CC1 [Compound 110]"
  Subject Of Test: "Somatostatin Receptor 2 (SSTR2) (Homo sapiens)"
  Label Value: "middle"
- Molecule: "Cc1cc(F)cc(-c2cnc3ccc4cc3c2N2CCC(CC2)NCC[C@H](O)COc2c(C#N)cccc2-4)c1 (single isomer, unassigned) [Compound 103]"
  Subject Of Test: "Somatostatin Receptor 2 (SSTR2) (Homo sapiens)"
  Label Value: "high"
- Molecule: "NC1CCN(c2c(-c3cc(F)cc(F)c3)cnc3nc(-c4cccc(Br)c4O)[nH]c23)CC1 [Compound 64]"
  Subject Of Test: "Somatostatin Receptor 2 (SSTR2) (Homo sapiens)"
  Label Value: "middle"
- Molecule: "CO[C@@H]1CN(c2c(-c3cc(F)cc(F)c3)cnc3c2nc(-c2ccc4[nH]c(=O)[nH]c4c2)n3C)CC[C@H]1N [Compound 25]"
  Subject Of Test: "Somatostatin Receptor 2 (SSTR2) (Homo sapiens)"
  Label Value: "high"
- Molecule: "CN1CCCCNC2CCN(CC2)c2c(-c3cc(F)cc(F)c3)cnc3ccc(cc23)-c2cccc(n2)C1=O [Compound 82]"
  Subject Of Test: "Somatostatin Receptor 2 (SSTR2) (Homo sapiens)"
  Label Value: "middle"
- Molecule: "N[C@@H]1CC[C@@H](Oc2c(-c3cc(F)cc(F)c3)cnc3ccc(-c4cc(F)cc(F)c4)cc23)C1 [Compound 14]"
  Subject Of Test: "Somatostatin Receptor 2 (SSTR2) (Homo sapiens)"
  Label Value: "middle"
- Molecule: "COc1cc(F)cc(-c2cnc3cc(-c4ccc5[nH]c(=O)[nH]c5c4)oc3c2N2CCC(N)CC2)c1 [Compound 130]"
  Subject Of Test: "Somatostatin Receptor 2 (SSTR2) (Homo sapiens)"
  Label Value: "middle"
- Molecule: "N#Cc1cccc(-c2cc3c(N4CCC(N)CC4)c(-c4cc(F)cc(F)c4)cnc3o2)c1O [Compound 131]"
  Subject Of Test: "Somatostatin Receptor 2 (SSTR2) (Homo sapiens)"
  Label Value: "high"
- Molecule: "Cc1cc(F)cc(-c2cnc3c(nc(-c4ccc5[nH]c(=O)[nH]c5c4)n3C)c2N2CCC(N)CC2)c1 [Compound 36]"
  Subject Of Test: "Somatostatin Receptor 2 (SSTR2) (Homo sapiens)"
  Label Value: "high"
- Molecule: "Cn1c(-c2cccc(Br)c2O)nc2ncc(-c3cc(F)cc(F)c3)c(N3CCC(NC(=O)OC(C)(C)C)CC3)c21 [Compound 44]"
  Subject Of Test: "Somatostatin Receptor 2 (SSTR2) (Homo sapiens)"
  Label Value: "high"
- Molecule: "NC1CCN(c2c(-c3cc(F)cc(F)c3)cnc3ccc(C4=CC=CC5(O)C(=O)NCCN45)cc23)CC1 (centres unmarked) [Compound 151]"
  Subject Of Test: "Somatostatin Receptor 2 (SSTR2) (Homo sapiens)"
  Label Value: "low"
- Molecule: "N#Cc1cccc(-c2ccc3ncc(-c4cc(F)cc(F)c4)c(-c4ccc(N)cn4)c3c2)c1O [Compound 123]"
  Subject Of Test: "Somatostatin Receptor 2 (SSTR2) (Homo sapiens)"
  Label Value: "high"
- Molecule: "COc1cc(F)cc(-c2cnc3[nH]c(-c4cc(F)cc(C(=O)O)c4)nc3c2N2CC[C@@H](N)[C@H](OC)C2)c1 [Compound 52]"
  Subject Of Test: "Somatostatin Receptor 2 (SSTR2) (Homo sapiens)"
  Label Value: "high"
- Molecule: "COc1cc(F)cc(-c2cnc3[nH]c(-c4cc(F)cc(C(N)=O)c4)nc3c2N2CCC(N)CC2)c1 [Compound 58]"
  Subject Of Test: "Somatostatin Receptor 2 (SSTR2) (Homo sapiens)"
  Label Value: "high"
- Molecule: "N[C@H]1CC[C@@H](Oc2c(-c3cc(F)cc(F)c3)cnc3ccc(-c4ccc5[nH]c(=O)[nH]c5c4)cc23)C1 [Compound 11]"
  Subject Of Test: "Somatostatin Receptor 2 (SSTR2) (Homo sapiens)"
  Label Value: "high"
- Molecule: "N#Cc1cccc2c1NCCCNC1CCN(CC1)c1c(-c3cc(F)cc(F)c3)cnc3ccc-2cc13 [Compound 93]"
  Subject Of Test: "Somatostatin Receptor 2 (SSTR2) (Homo sapiens)"
  Label Value: "middle"
- Molecule: "Cn1c(-c2cccc(Br)c2O)nc2ncc(-c3cc(F)cc(F)c3)c(N3CCC(N)CC3)c21 [Compound 45]"
  Subject Of Test: "Somatostatin Receptor 2 (SSTR2) (Homo sapiens)"
  Label Value: "high"
- Molecule: "N#Cc1cccc2c1OCCO[C@H]1CN(CC[C@@H]1N)c1c(-c3cc(F)cc(F)c3)cnc3ccc-2cc13 [Compound 77]"
  Subject Of Test: "Somatostatin Receptor 2 (SSTR2) (Homo sapiens)"
  Label Value: "low"
